Source listed as patent US12637410B2.

# TESTED ON: VMAT2 (Rattus norvegicus)
# Construct: from tissue; host or cells: rat striatum, isolated synaptic vesicles
# Sequence (Q01827 whole entry): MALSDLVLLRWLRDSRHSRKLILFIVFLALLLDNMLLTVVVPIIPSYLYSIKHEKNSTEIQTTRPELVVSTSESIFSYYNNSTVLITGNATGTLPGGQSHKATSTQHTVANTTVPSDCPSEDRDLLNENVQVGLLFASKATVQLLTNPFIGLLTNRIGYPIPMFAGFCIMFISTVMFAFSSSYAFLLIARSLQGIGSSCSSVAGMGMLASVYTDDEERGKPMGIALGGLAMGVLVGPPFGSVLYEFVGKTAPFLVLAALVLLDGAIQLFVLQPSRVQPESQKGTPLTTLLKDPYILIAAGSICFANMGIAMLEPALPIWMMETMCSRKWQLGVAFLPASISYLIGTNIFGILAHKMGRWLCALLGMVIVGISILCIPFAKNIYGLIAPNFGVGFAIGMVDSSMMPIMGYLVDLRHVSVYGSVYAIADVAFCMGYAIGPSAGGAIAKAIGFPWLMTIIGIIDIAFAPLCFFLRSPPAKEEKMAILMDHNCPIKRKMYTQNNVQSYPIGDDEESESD
# RUN DESCRIPTION: [3H]Dopamine ([3H]DA) uptake assay, vesicular preparation
# Assay type: biochemical
# TEST PARAMETERS: Table 4; mean, minimally n = 3; read-out: VMAT2 (rat) Inhibition: Mean Ki
VALUE KIND: Ki (nM)
All answers are understood in nM, so give the number only.

COMPOUND: CC(Cc1cc(F)cc(F)c1)NCCCc1ccc(C(N)=O)cc1 (centres unmarked)
RESULT VALUE: 6

compound CC(Cc1ccc(F)cc1)NCCCc1ccc(C(N)=O)cc1 (centres unmarked) , Ki observed: 16

compound CC(Cc1cccc(F)c1)NCCCc1ccc(C(N)=O)cc1 (centres unmarked) , Ki observed: 6

compound CC(Cc1ccc(C(N)=O)cc1)NCCCc1ccc(F)cc1 (centres unmarked) , Ki observed: 31

compound CC(Cc1cccc(C(N)=O)c1)NCCCc1ccc(F)cc1 (centres unmarked) , Ki observed: 43
